Tested on: OVCAR-4
protocolDetails: NCI tumour cell line growth inhibition, 48 h
Activity calls are given as the source filed them. Cut-off read from the data, not from the text of the source: active = GI50 up to about 1.1 µM and inactive = higher.
Entries and their GI50 values follow.

{"columns": ["molecule", "targetEntity", "measurementType", "testValue"],
 "data": [
  ["C=C1CCCC(C)(C)[C@@H]1CC/C(C)=C/Cn1c2cccc(=O)c-2nc2ccccc21", "OVCAR-4", "GI50", "1.81 µM (inactive)"],
  ["O=C(C=P(c1ccccc1)(c1ccccc1)c1ccccc1)c1ccc(-c2cccc([N+](=O)[O-])c2)cc1", "OVCAR-4", "GI50", "2.61 µM (inactive)"],
  ["COC(=O)c1c(OC(C)=O)ccc2c1c1c(OC(C)=O)c3ccccc3c(OC(C)=O)c1n2Cc1cc(OC)cc(OC)c1", "OVCAR-4", "GI50", "4.41 µM (inactive)"],
  ["CCOC(CBr)OC1C(=O)OCC1(C)C (stereo not given)", "OVCAR-4", "GI50", "> 100 µM (inactive)"],
  ["CC1C(O)=C(O)c2ccccc2N1O (stereo not given)", "OVCAR-4", "GI50", "> 100 µM (inactive)"],
  ["CCOc1ccc(NC(=O)C2=C(C)NC(C)=C(C(=O)Nc3ccc(OCC)cc3)C2c2ccc(O)c(OC)c2)cc1", "OVCAR-4", "GI50", "36.9 µM (inactive)"],
  ["CCCCN(CCCC)C1=Nc2ccccc2-n2c(nnc2C(=O)OCC)C1", "OVCAR-4", "GI50", "61.8 µM (inactive)"],
  ["COCC(=O)OC1CCn2c1nc1c2C(=O)C(C)=C(NC(C)=O)C1=O (stereo not given)", "OVCAR-4", "GI50", "1.85 µM (inactive)"]
]}

Look up GI50 of O=c1c(-c2ccccc2)c(SCCCN2CCN(c3cccc(Cl)c3)CC2)n(-c2ccccc2)c(=S)n1-c1ccccc1 and report it.
23.3 µM (inactive)

Look up GI50 of CCCCCCCCCCCC1CCCC(C)N1 (stereo not given) and report it.
61.2 µM (inactive)

Look up GI50 of CCOC(=O)C(=Cc1ccc(C(=O)OC)cc1)C(=O)OCC and report it.
3.78 µM (inactive)

Look up GI50 of CCOC(=O)CCC(NC(=O)OCc1ccccc1)C(=O)NC(CCC(=O)OCC)C(=O)NC(CCC(=O)OCC)C(=O)NC(CCC(=O)OCC)C(=O)NC(CCC(=O)OCC)C(=O)NC(CCC(=O)OCC)C(=O)NC(CCC(=O)OCC)C(=O)OCC (stereo not given) and report it.
> 100 µM (inactive)

Look up GI50 of C=CCC1C(=O)Nc2cccc3ncn(c23)C1=O (stereo not given) and report it.
> 100 µM (inactive)
